Property: IC50; scope: individual compounds
# ASSAY_TARGET: Envelope glycoprotein gp160 (Human immunodeficiency virus 1)
# Sequence (Q6QLK5 whole entry, the tested form may be a part): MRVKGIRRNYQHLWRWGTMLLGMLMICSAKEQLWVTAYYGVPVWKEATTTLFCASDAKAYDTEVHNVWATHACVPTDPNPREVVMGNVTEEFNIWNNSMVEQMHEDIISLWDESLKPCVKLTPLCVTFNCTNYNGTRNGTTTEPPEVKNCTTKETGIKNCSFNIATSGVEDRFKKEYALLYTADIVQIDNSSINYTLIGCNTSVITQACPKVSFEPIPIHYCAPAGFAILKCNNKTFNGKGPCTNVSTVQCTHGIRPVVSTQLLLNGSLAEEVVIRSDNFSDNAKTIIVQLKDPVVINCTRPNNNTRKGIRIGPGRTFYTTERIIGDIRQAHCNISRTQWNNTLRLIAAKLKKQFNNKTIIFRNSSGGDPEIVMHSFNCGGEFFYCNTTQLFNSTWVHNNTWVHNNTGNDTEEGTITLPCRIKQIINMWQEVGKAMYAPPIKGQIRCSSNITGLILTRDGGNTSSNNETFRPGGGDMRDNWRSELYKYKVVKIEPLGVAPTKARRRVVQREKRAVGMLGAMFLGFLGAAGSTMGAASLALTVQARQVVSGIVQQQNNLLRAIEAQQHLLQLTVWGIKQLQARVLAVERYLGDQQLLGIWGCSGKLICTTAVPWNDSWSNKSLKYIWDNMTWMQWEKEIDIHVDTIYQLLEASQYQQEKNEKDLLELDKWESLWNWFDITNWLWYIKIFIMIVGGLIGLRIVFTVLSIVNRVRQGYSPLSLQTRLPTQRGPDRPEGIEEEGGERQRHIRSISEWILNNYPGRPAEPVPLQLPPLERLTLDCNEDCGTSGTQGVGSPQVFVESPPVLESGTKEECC
# ASSAY_INFO: inhibitors of HIV fusion peptide binding, primary screen, biochemical, uHTS, fluorescence dequenching (AID 1986)
Activity calls are given as the source filed them. No stated cut-off is given here; in the data, actives have a measured IC50 and inactives only a lower limit.

Take a look at these entries with their results.
{"columns": ["SMILES_CODE", "IC50"],
 "data": [
  ["O=C1NC(=S)N(c2ccc(F)cc2)C(=O)/C1=C/c1ccco1", "15.6 µM (active)"],
  ["CCCCCCc1c(C)c2ccc(OCC(=O)N[C@@H](Cc3ccccc3)C(=O)O)cc2oc1=O", "22.8 µM (active)"],
  ["Cc1ccc(C)c(S(=O)(=O)/N=C2\\C=C(NS(=O)(=O)c3ccccc3)C(=O)c3ccccc32)c1", "12.9 µM (active)"],
  ["O=[N+]([O-])c1cccc(S(=O)(=O)Nc2nc3ccccc3nc2Nc2cccc(S(=O)(=O)N3CCCCC3)c2)c1", "14.5 µM (active)"],
  ["Cc1cc(C)cc(-n2cccc2/C=C2/C(=N)N3C(=NC2=O)SN=C3S(C)(=O)=O)c1", "11.6 µM (active)"]
]}

Q: Using the record for `O=C(O)CN1C(=O)/C(=C\c2cccc(OCc3ccc(Cl)cc3)c2)SC1=S` , report its IC50.
Ans: 13.6 µM (active)
